measured.on: Sphingosine 1-phosphate receptor 3 (Homo sapiens, UniProt Q99500)
Sequence (Q99500 whole entry): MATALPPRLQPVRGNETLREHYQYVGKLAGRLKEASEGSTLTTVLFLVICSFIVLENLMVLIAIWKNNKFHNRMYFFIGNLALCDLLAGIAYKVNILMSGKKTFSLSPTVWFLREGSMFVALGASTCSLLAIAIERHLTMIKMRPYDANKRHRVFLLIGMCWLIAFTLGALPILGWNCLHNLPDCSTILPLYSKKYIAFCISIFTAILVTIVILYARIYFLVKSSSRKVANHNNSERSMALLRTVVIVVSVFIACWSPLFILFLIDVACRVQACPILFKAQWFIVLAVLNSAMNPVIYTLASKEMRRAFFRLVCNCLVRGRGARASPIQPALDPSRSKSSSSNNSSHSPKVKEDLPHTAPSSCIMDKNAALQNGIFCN
measurement.description: Agonist activity at human S1P3 receptor expressed in CHO cells coexpressing Gq/i5 G-protein assessed as Ca2+ mobilization after 60 to 90 mins by FLIPR assay
Format: functional, cell-based
pEC50: −log10 of the molar value.
measurement.name: pEC50

Reference set (8 entries):
Cn1cc(C(=O)Nc2ccc(-c3ccccc3)c(C(F)(F)F)c2)c(=O)c2ccc(CC(=O)O)cc21: 5.80
Cn1cc(C(=O)Nc2ccc(-c3ccccc3)c(C(F)(F)F)c2)c(=O)c2ccc(CCCO)cc21: < 4.60
Cn1cc(C(=O)Nc2ccc(-c3ccccc3)c(C(F)(F)F)c2)c(=O)c2cccc(CCO)c21: < 4.60
Cn1cc(C(=O)Nc2ccc(-c3ccccc3)c(C(F)(F)F)c2)c(=O)c2ccc(C(=O)O)cc21: < 4.60
Cn1cc(C(=O)Nc2ccc(-c3ccccc3)c(C(F)(F)F)c2)c(=O)c2ccc(CCC(=O)O)cc21: 6.03
Cn1cc(C(=O)Nc2ccc(-c3ccccc3)c(C(F)(F)F)c2)c(=O)c2cccc(CO)c21: < 4.60
Cn1cc(C(=O)Nc2ccc(-c3ccccc3)c(C(F)(F)F)c2)c(=O)c2cnccc21: < 4.60
Cn1cc(C(=O)Nc2ccc(-c3ccccc3)c(C(F)(F)F)c2)c(=O)c2cc(CO)ccc21: < 4.60

Now look at this one.
Quick check: pEC50 of Cn1cc(C(=O)Nc2ccc(-c3ccccc3)c(C(F)(F)F)c2)c(=O)c2cnc(CO)cc21 ?
< 4.60

###

measurement.description: AUC (0 to 24 hrs) in rat at 3 mg/kg, po
Format: ADME, organism-based
Design: time < 24 hr, dose 3 mg/kg, route oral
measurement.conditions: plasma
measurement.name: AUC(0-t) at 24 h (µM·h)
# output: bare number, implied unit µM·h

Quick check: AUC(0-t) at 24 h of COc1ccncc1C(=O)NC(=O)Nc1ccc(-c2ccccc2)c(C(F)(F)F)c1 ?
12

###

measured.on: Sphingosine 1-phosphate receptor 1 (Homo sapiens)
measurement.description: Agonist activity at human S1P1 receptor expressed in human U2OS cells co-expressing eGFP assessed as receptor internalization after 1 hr relative to 1-(4-(6-benzylbenzofuran-2-yl)-3-fluorobenzyl)azetidine-3-carboxylic acid
Type: functional, cell-based
measurement.name: Efficacy (%)

Cn1cc(C(=O)Nc2ccc(-c3ccccc3)c(C(F)(F)F)c2)c(=O)c2ccc(CC(=O)O)cc21: 138
Cn1cc(C(=O)Nc2ccc(-c3ccccc3)c(C(F)(F)F)c2)c(=O)c2cccc(CCO)c21: 106
Cn1cc(C(=O)Nc2ccc(-c3ccccc3)c(C(F)(F)F)c2)c(=O)c2ccc(CN3CC(C(=O)O)C3)cc21: 108
Cn1cc(C(=O)Nc2ccc(-c3ccccc3)c(C(F)(F)F)c2)c(=O)c2ccc(C(=O)O)cc21: 98
Cn1cc(C(=O)Nc2ccc(-c3ccccc3)c(C(F)(F)F)c2)c(=O)c2cccc(CO)c21: 104
Cn1cc(C(=O)Nc2ccc(-c3ccccc3)c(C(F)(F)F)c2)c(=O)c2cccc(CN)c21: 118
Cn1cc(C(=O)Nc2ccc(-c3ccccc3)c(C(F)(F)F)c2)c(=O)c2ccccc21: 105
Cn1cc(C(=O)Nc2ccc(-c3ccccc3)c(C(F)(F)F)c2)c(=O)c2ccc(CCCO)cc21: 118

###

measured.on: Sphingosine 1-phosphate receptor 1 (Homo sapiens, UniProt P21453)
Sequence (P21453 whole entry): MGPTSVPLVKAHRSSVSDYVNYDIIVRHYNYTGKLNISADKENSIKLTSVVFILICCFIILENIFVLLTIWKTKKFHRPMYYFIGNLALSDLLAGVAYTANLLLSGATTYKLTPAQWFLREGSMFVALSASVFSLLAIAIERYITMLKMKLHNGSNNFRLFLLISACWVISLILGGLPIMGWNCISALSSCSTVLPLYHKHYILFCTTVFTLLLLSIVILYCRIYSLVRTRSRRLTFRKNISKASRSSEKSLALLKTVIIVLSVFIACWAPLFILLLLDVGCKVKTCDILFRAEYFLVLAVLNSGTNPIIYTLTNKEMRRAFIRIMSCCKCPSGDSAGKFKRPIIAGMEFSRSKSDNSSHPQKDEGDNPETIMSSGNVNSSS
measurement.description: Agonist activity at human S1P1 receptor expressed in human U2OS cells co-expressing eGFP assessed as receptor internalization after 1 hr relative to 1-(4-(6-benzylbenzofuran-2-yl)-3-fluorobenzyl)azetidine-3-carboxylic acid
Type: functional, cell-based
measurement.name: Efficacy (%)

Reference set (5 entries):
Cn1cc(C(=O)Nc2ccc(-c3ccccc3)c(C(F)(F)F)c2)c(=O)c2cc(CO)ccc21: 46
Cn1cc(C(=O)Nc2ccc(-c3ccccc3)c(C(F)(F)F)c2)c(=O)c2cccc(C(=O)O)c21: 103
Cn1cc(C(=O)Nc2ccc(-c3ccccc3)c(C(F)(F)F)c2)c(=O)c2ccc(CCC(=O)O)cc21: 85
Cn1cc(C(=O)Nc2ccc(-c3ccccc3)c(C(F)(F)F)c2)c(=O)c2cnc(CCC(=O)O)cc21: 88
Cn1cc(C(=O)Nc2ccc(-c3ccccc3)c(C(F)(F)F)c2)c(=O)c2cnc(CO)cc21: 106

P. Cn1cc(C(=O)Nc2ccc(-c3ccccc3)c(C(F)(F)F)c2)c(=O)c2ccc(NCCC(=O)O)cc21
Q. Cn1cc(C(=O)Nc2ccc(-c3ccccc3)c(C(F)(F)F)c2)c(=O)c2ccc(CO)cc21
Lower Efficacy: P or Q ? Answer by quoting the chosen item's label.
P
(P: 81%, Q: 125%)

###

measurement.description: Mean residence time in nonhuman primates at 4 mg/kg, iv
Type: ADME, organism-based
Set-up: dose 4 mg/kg, route intravenous
measurement.conditions: in vivo
measurement.name: MRT (h)
# output: bare number, implied unit h

Quick check: MRT of Cn1cc(C(=O)Nc2ccc(-c3ccccc3)c(C(F)(F)F)c2)c(=O)c2cnc(CO)cc21 ?
40

###

measurement.description: Efflux ratio of permeability in pig LLC-PK1 cells
Format: ADME, cell-based, Sus scrofa
measurement.name: efflux ratio

Reference set (3 entries):
Cn1cc(C(=O)Nc2ccc(-c3ccccc3)c(C(F)(F)F)c2)c(=O)c2ccc(CCO)cc21: 1
Cn1cc(C(=O)Nc2ccc(-c3ccccc3)c(C(F)(F)F)c2)c(=O)c2ccc(CO)cc21: 1
Cn1cc(C(=O)Nc2ccc(-c3ccccc3)c(C(F)(F)F)c2)c(=O)c2cnc(CO)cc21: 1

I. Cn1cc(C(=O)Nc2ccc(-c3ccccc3)c(C(F)(F)F)c2)c(=O)c2ccc(CCC(=O)O)cc21
II. Cn1cc(C(=O)Nc2ccc(-c3ccccc3)c(C(F)(F)F)c2)c(=O)c2ccc(C(=O)O)cc21
Lower efflux ratio: I or II ? Answer by quoting the chosen item's label.
I

###

measured.on: Sphingosine 1-phosphate receptor 1 (Homo sapiens, UniProt P21453)
measurement.description: Agonist activity at human S1P1 receptor expressed in human U2OS cells co-expressing eGFP assessed as receptor internalization after 1 hr
measurement.name: EC50 (nM)

Cn1cc(C(=O)Nc2ccc(-c3ccccc3)c(C(F)(F)F)c2)c(=O)c2cc(CO)ccc21: 700
Cn1cc(C(=O)Nc2ccc(-c3ccccc3)c(C(F)(F)F)c2)c(=O)c2ccc(CO)cc21: 18
Cn1cc(C(=O)Nc2ccc(-c3ccccc3)c(C(F)(F)F)c2)c(=O)c2cccc(CN)c21: 81
Cn1cc(C(=O)Nc2ccc(-c3ccccc3)c(C(F)(F)F)c2)c(=O)c2ccc(CN3CC(C(=O)O)C3)cc21: 25
Cn1cc(C(=O)Nc2ccc(-c3ccccc3)c(C(F)(F)F)c2)c(=O)c2cccc(CCO)c21: 390
Cn1cc(C(=O)Nc2ccc(-c3ccccc3)c(C(F)(F)F)c2)c(=O)c2cccc(CO)c21: 39
Cn1cc(C(=O)Nc2ccc(-c3ccccc3)c(C(F)(F)F)c2)c(=O)c2ccc(C(=O)O)cc21: 21

A. Cn1cc(C(=O)Nc2ccc(-c3ccccc3)c(C(F)(F)F)c2)c(=O)c2cnc(CCC(=O)O)cc21
B. Cn1cc(C(=O)Nc2ccc(-c3ccccc3)c(C(F)(F)F)c2)c(=O)c2ccc(CCCO)cc21
Lower EC50: A or B ? Answer by quoting the chosen item's label.
B
